- Assay Remarks: Plasma and CSF pharmacokinetics, noncompartmental analysis, Study ALZ1008
- Assay type: in vivo, human
- Protocol Conditions: human, CSF, oral; Japanese preclinical AD; 10 mg q.d.; read-out: C28d, CSF concentration at Day 28, Mean (SD)
Measurement Name: concentration at 28 day (ng/mL)
Please give a number only; it is taken to be in ng/mL.

Request: State, in one line, measured concentration at 28 day of C[C@@]1(c2cc(NC(=O)c3ccc(C#N)cn3)ccc2F)C=CSC(N)=N1
Response: 3.29

---

- Assay Remarks: Plasma and CSF pharmacokinetics, population PK modeling, Study ALZ1005
- Assay type: in vivo, human
- Protocol Conditions: human, CSF, oral; Caucasian early AD; 10 mg q.d.; read-out: C28d, CSF concentration at Day 28, Mean (SD)
Measurement Name: concentration at 28 day (ng/mL)
Please give a number only; it is taken to be in ng/mL.

Request: State, in one line, measured concentration at 28 day of C[C@@]1(c2cc(NC(=O)c3ccc(C#N)cn3)ccc2F)C=CSC(N)=N1
Response: 3.08
